- protocol.notes: Inhibition of chymotryptic-like of purified human 20S immunoproteasome
Entries and their IC50
Kindly answer with a numeric value in µM, unit omitted.

Some solved entries appear below for comparison.
NC[C@@H]1[C@H]2CN3C(=O)c4cccn4[C@@H]4NC(N)=N[C@@]43[C@@H]2[C@]2(N=C(N)N[C@H]2O)[C@H]1Cl
2.3
NC1=N[C@]23CCCN2C(=O)c2cc(Br)c(Br)n2[C@@H]3N1 (racemic)
18.7
NC[C@@H]1[C@H]2CN3C(=O)c4cccn4[C@@H]4NC(N)=N[C@@]43[C@@H]2[C@]2(N=C(N)N[C@H]2O)[C@H]1Cl (racemic)
4

Now for the compound whose IC50 we want.
For O=C1N[C@H]2n3c(cc(Br)c3Br)C(=O)N3CCC[C@]23N1 (racemic) , what is its reported IC50?
6.2

Hello, the source for this data is ChEMBL document CHEMBL2046385, in case you need it.
